Target: T1, human HGF (R&D material and Peprotech material, values averaged over both) (human, UniProt P14210 32-728)
T1 construct: As printed they differ in one letter
T1 sequence (P14210 32-728 limits assumed): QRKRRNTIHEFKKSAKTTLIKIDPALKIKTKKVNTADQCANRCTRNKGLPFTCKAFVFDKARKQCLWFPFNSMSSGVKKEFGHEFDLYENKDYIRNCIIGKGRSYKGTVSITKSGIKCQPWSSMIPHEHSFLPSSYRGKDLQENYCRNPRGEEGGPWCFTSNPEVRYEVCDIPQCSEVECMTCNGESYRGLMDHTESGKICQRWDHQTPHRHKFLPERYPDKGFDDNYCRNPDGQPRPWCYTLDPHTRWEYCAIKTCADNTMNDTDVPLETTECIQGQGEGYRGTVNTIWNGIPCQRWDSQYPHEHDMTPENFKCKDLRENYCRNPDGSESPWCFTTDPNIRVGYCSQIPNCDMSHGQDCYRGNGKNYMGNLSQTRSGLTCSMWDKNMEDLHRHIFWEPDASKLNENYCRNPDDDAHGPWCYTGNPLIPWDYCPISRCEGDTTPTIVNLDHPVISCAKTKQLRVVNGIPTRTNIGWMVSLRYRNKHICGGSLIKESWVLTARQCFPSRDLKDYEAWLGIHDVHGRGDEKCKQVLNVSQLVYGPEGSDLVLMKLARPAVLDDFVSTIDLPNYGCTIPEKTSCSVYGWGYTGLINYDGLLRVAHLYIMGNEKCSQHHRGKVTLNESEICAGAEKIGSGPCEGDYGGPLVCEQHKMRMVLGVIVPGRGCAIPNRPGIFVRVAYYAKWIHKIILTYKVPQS
Assay Summary: SPR (Biacore T100), purified Nanobody, average of R&D and Peprotech HGF
Value Kind: koff (s⁻¹)

6E10 (VHH, anti-HGF Nanobody clone; not shown: c-myc and His6 tags) VHH: EVQLVESGGGLVQAGGSLRLSCAASGRTDSSYAMGWFRQAPGKEHEFVAAISWSGGSTYYADSVKGRFTISRDNAKNTLYLQMNSLKPEDTAVYYCGASYRWGITHEYEYWGQGTQVTVSS    5.5e-05
1E2 (VHH, anti-HGF Nanobody clone; not shown: c-myc and His6 tags) VHH: EVQLVESGGGLVQPGGSLRLSCAASGRTFSSYAMGWFRQAPGKEREFVAGISWSGSSSYYADSVKGRFTISRDNAKNTVYLQMNSLKPEDTAVYYCAADPVGRADLYEYDYWGQGTQVTVSS    0.0001
1E9 (VHH, anti-HGF Nanobody clone; not shown: c-myc and His6 tags) VHH: EVQLVESGGGLVQPGGSLRLSCAASGFTLDHYTIGWFRQAPGNEREGVSCISSLDGSTYYADSVKGRFTISRDNAKDTVYLQMNSLKPEDTAVYYCAVAGCGAYGLIPYDYWGQGTQVTVSS    0.00052

(a) 7G6 (VHH, anti-HGF Nanobody clone; not shown: c-myc and His6 tags) VHH: EVQLVESGGGLVQAGGSLRLSCAVSGRTFSPYTMGWFRRAPGKEREFVAARTWSGGVAWYADSVKGRFTISSDNAENMVYLQMNSLKPEDTAVYYCAAKSPGRTYSPREERAYARWGQGTQVTVSS
(b) 6G6 (VHH, anti-HGF Nanobody clone; not shown: c-myc and His6 tags) VHH: EVQLVESGGGLAQAGGSLRLSCAASGRSLSNYAMGWFRQAPGKEREIVCAISRSGSITTYADSVKGRFTIAKDNAANTVYLQMNSLKPEDTAAYYCAADPMYYGIPDQNWDYWGQGTQVTVSS
Task: Identify the item whose koff is the smaller number: a or b State your choice using its label.
Result: a

Reference source: patent US20150010546A1
